# ASSAYED_SYSTEM: T1, TNFR1 (Homo sapiens, UniProt P19438)
# T1 chain: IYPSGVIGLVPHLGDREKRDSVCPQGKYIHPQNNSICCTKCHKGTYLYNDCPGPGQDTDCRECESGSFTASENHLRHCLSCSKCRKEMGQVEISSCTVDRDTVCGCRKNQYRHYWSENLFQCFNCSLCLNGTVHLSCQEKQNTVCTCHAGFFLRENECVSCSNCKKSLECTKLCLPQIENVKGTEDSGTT
# PROTOCOL_SUMMARY: yeast display SC50
RECORDED_METRIC: apparent Kd (screen) (nM)
# unit: nM | format: bare number

Consider the binder shown here: Y101G (designed binder) SMEEEVEKAAKEYEKKKKEAIEKHLEKLKAKDKEAAERFLKELEEAAKEYAKDEAKTMSEEEAKRRAKKYKEKVLLSELSEEEQKEIKEAEEKLVRTILKGVEEAAK What is its recorded apparent Kd (screen)?
0.446

For K15P (designed binder) SMEEEVEKAAKEYEPKKKEAIEKHLEKLKAKDKEAAERFLKELEEAAKEYAKDEAKTMSEEEAKRRAKKYKEKVLLSELSEEEQKEIKEAEEKLVRTILKYVEEAAK , what is its reported apparent Kd (screen)?
6.43

Param item = A9Y (designed binder) SMEEEVEKYAKEYEKKKKEAIEKHLEKLKAKDKEAAERFLKELEEAAKEYAKDEAKTMSEEEAKRRAKKYKEKVLLSELSEEEQKEIKEAEEKLVRTILKYVEEAAK ; retrieve measured apparent Kd (screen).
0.718

Find the recorded apparent Kd (screen) belonging to A35I (designed binder) SMEEEVEKAAKEYEKKKKEAIEKHLEKLKAKDKEIAERFLKELEEAAKEYAKDEAKTMSEEEAKRRAKKYKEKVLLSELSEEEQKEIKEAEEKLVRTILKYVEEAAK and report it.
0.539

Data provenance is paper PMC12416549.
